- measuredOn: A1 (h) adenosine receptor (Homo sapiens)
- Construct: expressed in transfected cells
- Sequence (P30542 whole entry): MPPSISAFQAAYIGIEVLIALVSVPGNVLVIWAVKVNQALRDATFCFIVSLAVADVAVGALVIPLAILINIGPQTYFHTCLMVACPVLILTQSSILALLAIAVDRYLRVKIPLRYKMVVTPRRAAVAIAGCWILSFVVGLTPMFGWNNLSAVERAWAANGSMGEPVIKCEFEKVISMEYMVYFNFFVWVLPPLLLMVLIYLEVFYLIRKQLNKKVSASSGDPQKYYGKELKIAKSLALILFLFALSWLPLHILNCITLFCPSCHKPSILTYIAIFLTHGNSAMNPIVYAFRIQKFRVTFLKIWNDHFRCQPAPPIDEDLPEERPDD
- protocolSummary: Human recombinant adenosine receptor binding, A1 (h), [3H]DPCPX
- conditionLabel: [3H]DPCPX; Cheng Prusoff; Table 5; read-out: Ki, A1 (h)
pKi: −log10 of the molar value.

molecule	pKi
CC(C)N(C)c1nc2c(NC3CC4CC3CC4OCCCS(=O)(=O)O)ncnc2n1C (single isomer, unassigned) [1 (−isomer)]	5.96
CC(C)N(C)c1nc2c(NC3CC4CC3CC4OCCCS(=O)(=O)O)ncnc2n1C (single isomer, unassigned) [Compound 1 (+isomer)]	7.49
